Sourced from ChEMBL document CHEMBL1201861

- Tested on: EC-GI-10
- PROCEDURE TEXT: cells
- Assay type: functional, cell-based, Homo sapiens
- TEST CONDITIONS: Homo sapiens, EC-GI-10
- Description: SANGER: Inhibition of human EC-GI-10 cell growth in a cell viability assay.
pIC50: −log10 of the molar value.
Quick list: pIC50 per entry.
MEASUREMENT KIND: pIC50

COMPOUND: CCC1=C[C@@H]2CN(C1)Cc1c([nH]c3ccccc13)[C@@](C(=O)OC)(c1cc3c(cc1OC)N(C)[C@H]1[C@@](O)(C(=O)OC)[C@H](OC(C)=O)[C@]4(CC)C=CCN5CC[C@]31[C@@H]54)C2
RESULT: < 7.19
--
COMPOUND: C=C1C(=O)O[C@@H]2C3O[C@]3(C)CC/C=C(\C)CC[C@@H]12 (stereo partly drawn)
RESULT: < 5.30
--
COMPOUND: COc1cc([C@@H]2c3cc4c(cc3[C@@H](O[C@@H]3O[C@@H]5CO[C@@H](C)O[C@H]5[C@H](O)[C@H]3O)[C@H]3COC(=O)[C@H]23)OCO4)cc(OC)c1O [ETOPOSIDE]
RESULT: < 4.80

----------
- Tested on: Ramos-2G6-4C10;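 also: growth inhibition of the cell line, measured by a cell viability read-out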
- PROCEDURE TEXT: cells
- Format: functional, cell-based
- TEST CONDITIONS: Homo sapiens
- Description: SANGER: Inhibition of human Ramos-2G6-4C10 cell growth in a cell viability assay.

COMPOUND: COc1ccc(C2=N[C@@H](c3ccc(Cl)cc3)[C@@H](c3ccc(Cl)cc3)N2C(=O)N2CCNC(=O)C2)c(OC(C)C)c1
IC50: > 8000 nM
//
COMPOUND: CN(Cc1cnc2nc(N)nc(N)c2n1)c1ccc(C(=O)N[C@@H](CCC(=O)O)C(=O)O)cc1 [METHOTREXATE]
IC50: 26.9 nM
//
COMPOUND: Nc1ccn([C@@H]2O[C@H](CO)[C@@H](O)[C@@H]2O)c(=O)n1
IC50: 868 nM
//
COMPOUND: O=C1N=C(NCc2cccs2)S/C1=C\c1ccc2ncccc2c1
IC50: > 5000 nM
//
COMPOUND: Cn1cc(C2=C(c3ccc(Cl)cc3Cl)C(=O)NC2=O)c2ccccc21
IC50: > 10000 nM
//
COMPOUND: COc1ccc(-c2ccc3c(N4CCOC[C@@H]4C)nc(N4CCOC[C@@H]4C)nc3n2)cc1CO
IC50: 170 nM
//
COMPOUND: CN(c1ncccc1CNc1nc(Nc2ccc3c(c2)CC(=O)N3)ncc1C(F)(F)F)S(C)(=O)=O
IC50: > 2560 nM
//
COMPOUND: Cc1ccc(Nc2nccc(N(C)c3ccc4c(C)n(C)nc4c3)n2)cc1S(N)(=O)=O
IC50: > 8000 nM
//
COMPOUND: CCC1=C[C@@H]2CN(C1)Cc1c([nH]c3ccccc13)[C@@](C(=O)OC)(c1cc3c(cc1OC)N(C)[C@H]1[C@@](O)(C(=O)OC)[C@H](OC(C)=O)[C@]4(CC)C=CCN5CC[C@]31[C@@H]54)C2
IC50: 4.45 nM
//
COMPOUND: O=c1cc(-c2cccc3c2Sc2ccccc2S3)oc(N2CCOCC2)c1
IC50: > 10000 nM
//
COMPOUND: Cc1cc(Nc2cc(N3CCN(C)CC3)nc(Sc3ccc(NC(=O)C4CC4)cc3)n2)n[nH]1
IC50: > 2000 nM

----------
- Tested on: OS-RC-2;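 also: growth inhibition of human OS-RC-2 cells, measured by a cell viability assay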
- PROCEDURE TEXT: cells
- Assay type: functional, cell-based, Homo sapiens
- TEST CONDITIONS: Homo sapiens, OS-RC-2
- Description: SANGER: Inhibition of human OS-RC-2 cell growth in a cell viability assay.
pIC50: −log10 of the molar value.
Quick list: pIC50 per entry.

COMPOUND: CO[C@H]1C[C@@H]2CC[C@@H](C)[C@@](O)(O2)C(=O)C(=O)N2CCCC[C@H]2C(=O)O[C@H]([C@H](C)C[C@@H]2CC[C@@H](O)[C@H](OC)C2)CC(=O)[C@H](C)/C=C(\C)[C@@H](O)[C@@H](OC)C(=O)[C@H](C)C[C@H](C)/C=C/C=C/C=C/1C
QUALIFIER OPERATOR: =
pIC50: 9.19
//
COMPOUND: C=C1C(=O)O[C@@H]2C3O[C@]3(C)CC/C=C(\C)CC[C@@H]12 (stereo partly specified)
QUALIFIER OPERATOR: <
pIC50: 5.30
//
COMPOUND: CN1CCN(CCOc2cc(OC3CCOCC3)c3c(Nc4c(Cl)ccc5c4OCO5)ncnc3c2)CC1
QUALIFIER OPERATOR: =
pIC50: 5.72
//
COMPOUND: COc1cc(F)c(F)c(Nc2ccc(I)cc2F)c1NS(=O)(=O)C1(CC(O)CO)CC1 (stereo unspecified)
QUALIFIER OPERATOR: <
pIC50: 5.30
//
COMPOUND: C=CCNC1=C2C[C@@H](C)C[C@H](OC)[C@H](O)[C@@H](C)/C=C(\C)[C@H](OC(N)=O)[C@@H](OC)/C=C\C=C(/C)C(=O)NC(=CC1=O)C2=O
QUALIFIER OPERATOR: =
pIC50: 6.61
//
COMPOUND: CC(=O)O[C@@H]1[C@@H](OC(C)=O)[C@@H](O)[C@H](Oc2c(-c3ccc(O)cc3)oc3cc(O)cc(O)c3c2=O)O[C@H]1C
QUALIFIER OPERATOR: <
pIC50: 5.00

----------
- Test system: KMOE-2;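 also: growth inhibition of human KMOE-2 cells, read out with a cell viability assay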
- PROCEDURE TEXT: cells
- Format: functional, cell-based
- TEST CONDITIONS: Homo sapiens
- Description: SANGER: Inhibition of human KMOE-2 cell growth in a cell viability assay.
pIC50: −log10 of the molar value.

MOLECULE: CN(C)C/C=C/C(=O)Nc1cc2c(Nc3ccc(F)c(Cl)c3)ncnc2cc1O[C@H]1CCOC1 [AFATINIB]
QUALIFIER OPERATOR: <
pIC50: 6.30

MOLECULE: CCC(=O)N1CCN(c2ccc(-n3c(=O)ccc4cnc5ccc(-c6cnc7ccccc7c6)cc5c43)cc2C(F)(F)F)CC1 [TORIN1]
QUALIFIER OPERATOR: =
pIC50: 6.56

MOLECULE: CN(Cc1cnc2nc(N)nc(N)c2n1)c1ccc(C(=O)N[C@@H](CCC(=O)O)C(=O)O)cc1 [METHOTREXATE]
QUALIFIER OPERATOR: =
pIC50: 7.01

MOLECULE: CN1CCN(CCOc2cc(OC3CCOCC3)c3c(Nc4c(Cl)ccc5c4OCO5)ncnc3c2)CC1 [SARACATINIB]
QUALIFIER OPERATOR: <
pIC50: 5.70

MOLECULE: CNC(=O)c1cc(Oc2ccc(NC(=O)Nc3ccc(Cl)c(C(F)(F)F)c3)cc2)ccn1 [SORAFENIB]
QUALIFIER OPERATOR: =
pIC50: 5.55

MOLECULE: Cc1cc([C@@H](C)Nc2ccccc2C(=O)O)c2nc(N3CCOCC3)cc(=O)n2c1 [AZD-6482]
QUALIFIER OPERATOR: <
pIC50: 5.29

MOLECULE: O=C(NOCC1CC1)c1ccc(F)c(F)c1Nc1ccc(I)cc1Cl [CI-1040]
QUALIFIER OPERATOR: =
pIC50: 6.70

MOLECULE: Cc1cc(Nc2cc(N3CCN(C)CC3)nc(Sc3ccc(NC(=O)C4CC4)cc3)n2)n[nH]1 [TOZASERTIB]
QUALIFIER OPERATOR: <
pIC50: 5.70

MOLECULE: C=C1C(=O)O[C@@H]2C3O[C@]3(C)CC/C=C(\C)CC[C@@H]12 (some centres undefined)
QUALIFIER OPERATOR: <
pIC50: 5.30

----------
- Test system: RERF-LC-MS
- PROCEDURE TEXT: cells
- Assay type: functional, cell-based, Homo sapiens
- TEST CONDITIONS: Homo sapiens, RERF-LC-MS
- Description: SANGER: Inhibition of human RERF-LC-MS cell growth in a cell viability assay.
pIC50: −log10 of the molar value.
Quick list: pIC50 per entry.

MOLECULE: Nc1ccn([C@@H]2O[C@H](CO)[C@@H](O)[C@@H]2O)c(=O)n1
SYSTEM UNDER TEST: RERF-LC-MS
pIC50: 5.75

MOLECULE: CN(c1ncccc1CNc1nc(Nc2ccc3c(c2)CC(=O)N3)ncc1C(F)(F)F)S(C)(=O)=O
SYSTEM UNDER TEST: RERF-LC-MS
pIC50: < 5.59

MOLECULE: COc1cc(F)c(F)c(Nc2ccc(I)cc2F)c1NS(=O)(=O)C1(CC(O)CO)CC1 (stereo not drawn)
SYSTEM UNDER TEST: RERF-LC-MS
pIC50: 5.88

MOLECULE: Cn1cncc1[C@@](N)(c1ccc(Cl)cc1)c1ccc2c(c1)c(-c1cccc(Cl)c1)cc(=O)n2C
SYSTEM UNDER TEST: RERF-LC-MS
pIC50: < 4.80

MOLECULE: COC(=O)CNC(=O)C(=O)OC
SYSTEM UNDER TEST: RERF-LC-MS
pIC50: 2.78

MOLECULE: CN(Cc1cnc2nc(N)nc(N)c2n1)c1ccc(C(=O)N[C@@H](CCC(=O)O)C(=O)O)cc1 [METHOTREXATE]
SYSTEM UNDER TEST: RERF-LC-MS
pIC50: < 6.70

MOLECULE: Cc1cnc(-c2cnc(NCCNc3ccc(C#N)cn3)nc2-c2ccc(Cl)cc2Cl)[nH]1
SYSTEM UNDER TEST: RERF-LC-MS
pIC50: < 5.59

MOLECULE: COc1ccc(-c2ccc3c(N4CCOC[C@@H]4C)nc(N4CCOC[C@@H]4C)nc3n2)cc1CO
SYSTEM UNDER TEST: RERF-LC-MS;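 also: growth inhibition of human RERF-LC-MS cells, read out by a cell viability assay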
pIC50: < 5.70
